experiment: Oral bioavailability in C57BL/6J mouse at 3 mg/kg administered as single dose and measured after 24 hrs; assay type: ADME, organism-based; details: in vivo
property: bioavailability
Please report the result as a number followed by the unit.

Input line: Indicate the recorded bioavailability value for this compound: Cc1ccc(NC(=O)C[C@H](CCC(=O)O)c2noc([C@H]3C[C@@H](CC(C)(C)C)C3)c2C2CC2)c(Cl)c1
Output line: 98%

====

assay: Inhibition of rat glutamate receptor
pIC50: −log10 of the molar value.
property: pIC50

Input line: Indicate the recorded pIC50 value for this compound: Cc1ccc(NC(=O)C[C@H](CCC(=O)O)c2noc([C@H]3C[C@@H](CC(C)(C)C)C3)c2C2CC2)c(Cl)c1
Output line: < 5.00
